# System Tested: c-KIT (Homo sapiens)
# Sequence (P10721 26-976): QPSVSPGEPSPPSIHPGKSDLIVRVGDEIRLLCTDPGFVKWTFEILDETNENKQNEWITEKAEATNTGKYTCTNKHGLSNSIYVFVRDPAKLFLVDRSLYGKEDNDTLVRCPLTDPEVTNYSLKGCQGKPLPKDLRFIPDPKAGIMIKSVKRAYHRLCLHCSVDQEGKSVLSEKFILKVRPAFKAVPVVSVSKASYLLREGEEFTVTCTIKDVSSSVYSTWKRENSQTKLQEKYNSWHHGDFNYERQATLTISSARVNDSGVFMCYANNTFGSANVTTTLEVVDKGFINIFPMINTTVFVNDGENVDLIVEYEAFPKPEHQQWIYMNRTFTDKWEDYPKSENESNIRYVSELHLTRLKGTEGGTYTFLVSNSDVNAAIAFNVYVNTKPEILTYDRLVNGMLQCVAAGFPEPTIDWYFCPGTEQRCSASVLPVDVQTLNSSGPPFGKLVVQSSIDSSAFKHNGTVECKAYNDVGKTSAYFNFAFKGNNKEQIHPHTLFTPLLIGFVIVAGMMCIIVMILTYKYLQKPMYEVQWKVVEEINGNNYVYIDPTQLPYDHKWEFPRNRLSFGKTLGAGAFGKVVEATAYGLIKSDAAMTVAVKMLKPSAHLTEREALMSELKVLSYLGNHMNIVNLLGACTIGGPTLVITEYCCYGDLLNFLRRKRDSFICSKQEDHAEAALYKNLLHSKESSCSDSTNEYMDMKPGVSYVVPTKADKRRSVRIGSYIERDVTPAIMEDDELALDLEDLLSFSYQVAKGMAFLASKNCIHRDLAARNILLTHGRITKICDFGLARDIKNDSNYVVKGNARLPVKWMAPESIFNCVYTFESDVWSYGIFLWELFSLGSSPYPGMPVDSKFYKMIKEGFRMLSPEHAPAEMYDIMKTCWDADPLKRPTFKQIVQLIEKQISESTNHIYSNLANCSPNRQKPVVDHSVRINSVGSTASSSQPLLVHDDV
Ki reference

| Compound | Ki |
| --- | --- |
| CN(C)c1ccc(-c2cnc3[nH]cc(-c4nncn4-c4cccc(F)c4F)c3c2)cc1N [Compound 130] | < 200 nM |
| Fc1cccc(-c2cnoc2-c2c[nH]c3ncccc23)c1F [Compound 1] | < 200 nM |
| Oc1cnc2[nH]cc(-c3oncc3-c3cccc(Cl)c3Cl)c2c1 [Compound 48] | 200 to 1000 nM |

Name the recorded Ki for COc1ccnc(-c2cnc3[nH]cc(-c4oncc4-c4cccc(F)c4F)c3c2)c1 [Compound 78] . < 200 nM

CN(C)C1CC=C(c2cnc3[nH]cc(-c4oncc4-c4cccc(F)c4F)c3c2)CC1 (centres unmarked) [Compound 138] ? < 200 nM

====

# System Tested: JAK3 (Homo sapiens)
# Sequence (P52333 1-1124): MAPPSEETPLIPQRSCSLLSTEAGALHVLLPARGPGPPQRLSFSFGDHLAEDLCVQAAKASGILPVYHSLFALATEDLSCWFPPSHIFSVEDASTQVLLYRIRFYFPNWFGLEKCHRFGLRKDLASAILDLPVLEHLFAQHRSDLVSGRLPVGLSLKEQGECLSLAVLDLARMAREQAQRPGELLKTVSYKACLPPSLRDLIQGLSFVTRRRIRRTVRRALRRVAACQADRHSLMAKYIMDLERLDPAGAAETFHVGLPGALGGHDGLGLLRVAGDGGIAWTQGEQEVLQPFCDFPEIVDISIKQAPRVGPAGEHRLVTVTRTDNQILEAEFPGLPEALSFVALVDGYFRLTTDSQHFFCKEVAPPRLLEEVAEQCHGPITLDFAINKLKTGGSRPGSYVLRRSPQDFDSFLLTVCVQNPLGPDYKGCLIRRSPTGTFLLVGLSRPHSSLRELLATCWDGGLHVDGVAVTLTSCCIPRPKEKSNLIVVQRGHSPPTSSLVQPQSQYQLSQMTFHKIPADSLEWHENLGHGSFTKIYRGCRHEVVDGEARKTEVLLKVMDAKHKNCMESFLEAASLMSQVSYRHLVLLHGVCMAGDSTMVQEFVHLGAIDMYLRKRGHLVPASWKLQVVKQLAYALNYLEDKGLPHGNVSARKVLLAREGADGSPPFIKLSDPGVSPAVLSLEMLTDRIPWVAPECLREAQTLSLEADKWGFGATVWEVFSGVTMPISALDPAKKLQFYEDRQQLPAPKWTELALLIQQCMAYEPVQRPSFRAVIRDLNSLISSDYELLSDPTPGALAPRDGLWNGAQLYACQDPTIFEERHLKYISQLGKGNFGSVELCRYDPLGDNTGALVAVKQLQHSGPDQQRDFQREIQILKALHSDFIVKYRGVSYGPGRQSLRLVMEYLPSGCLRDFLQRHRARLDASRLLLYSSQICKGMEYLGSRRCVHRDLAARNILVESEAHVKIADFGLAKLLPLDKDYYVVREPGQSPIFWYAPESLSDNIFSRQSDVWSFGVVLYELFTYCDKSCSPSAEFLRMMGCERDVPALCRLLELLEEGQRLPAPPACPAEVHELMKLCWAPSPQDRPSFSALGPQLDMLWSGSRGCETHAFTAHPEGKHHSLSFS
Ki reference

Name the recorded Ki for COc1cnc2[nH]cc(-c3oncc3-c3cccc(Cl)c3Cl)c2c1 [Compound 49] . < 200 nM

Fc1cnc2[nH]cc(-c3oncc3-c3cccc(F)c3F)c2c1 [Compound 45] ? 1000 to 12500 nM

====

pKi: −log10 of the molar value.
The reader will find pKi measurements below, all made with JAK3 (Homo sapiens, UniProt P52333).

In the examples that follow, each entry is paired with its recorded pKi.
| Compound | Measured Metric | Recorded Value |
| --- | --- | --- |
| CN1CCCN(c2ccc(-c3cnc4[nH]cc(-c5nncn5-c5cccc(F)c5F)c4c3)cn2)CC1 [Compound 117] | pKi | 4.90 to 6.00 |
| Clc1cccc(-c2cnoc2-c2c[nH]c3ncccc23)c1Cl [Compound 2] | pKi | 6.00 to 6.70 |

Then this compound:
Name the recorded pKi for CN(C)c1ccc(-c2cnc3[nH]cc(-c4nncn4-c4cccc(F)c4F)c3c2)cc1[N+](=O)[O-] [Compound 131] . 4.90 to 6.00
